- tested on: Neuropilin-1 (Homo sapiens) (UniProt O14786)
- Sequence (O14786 whole entry, looked up): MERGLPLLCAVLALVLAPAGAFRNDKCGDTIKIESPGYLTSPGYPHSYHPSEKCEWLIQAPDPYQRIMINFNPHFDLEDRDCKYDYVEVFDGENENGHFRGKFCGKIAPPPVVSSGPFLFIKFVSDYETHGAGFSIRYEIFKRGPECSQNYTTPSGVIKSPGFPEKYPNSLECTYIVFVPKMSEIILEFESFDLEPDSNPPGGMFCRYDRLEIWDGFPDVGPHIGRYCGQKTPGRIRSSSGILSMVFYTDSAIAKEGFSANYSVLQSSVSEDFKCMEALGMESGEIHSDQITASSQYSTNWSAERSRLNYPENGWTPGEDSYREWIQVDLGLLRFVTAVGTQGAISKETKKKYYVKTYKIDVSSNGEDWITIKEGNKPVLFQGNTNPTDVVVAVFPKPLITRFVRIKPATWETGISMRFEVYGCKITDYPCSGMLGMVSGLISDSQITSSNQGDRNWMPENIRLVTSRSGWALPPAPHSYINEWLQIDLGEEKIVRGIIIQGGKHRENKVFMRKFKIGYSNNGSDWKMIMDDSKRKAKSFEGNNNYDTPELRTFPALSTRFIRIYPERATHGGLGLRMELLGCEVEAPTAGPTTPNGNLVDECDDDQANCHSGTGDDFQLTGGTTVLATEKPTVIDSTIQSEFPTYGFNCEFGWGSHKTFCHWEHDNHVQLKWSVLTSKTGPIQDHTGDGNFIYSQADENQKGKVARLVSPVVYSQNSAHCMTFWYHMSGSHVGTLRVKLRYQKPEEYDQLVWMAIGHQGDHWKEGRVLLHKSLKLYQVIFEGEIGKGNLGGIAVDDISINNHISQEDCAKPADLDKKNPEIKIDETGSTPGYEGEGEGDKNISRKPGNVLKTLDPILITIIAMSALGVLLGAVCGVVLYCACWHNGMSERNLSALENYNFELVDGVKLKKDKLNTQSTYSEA
- procedure details: NRP-1 b1b2 CendR peptide binding inhibitors, dose response, biochemical, FP and AlphaScreen panel (AID 651650)
- measurement context: NRP-1 b1b2 / RPARPAR peptide binding, FP or AlphaScreen; AlphaScreen, mean of runs
Active and inactive are the calls of the source.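 Rule for the calls: active = mean IC50 below 20 µM in each of the two panels, so potent in both; inactive = the rest.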
Pick one: true (1) (active), false (0) (inactive)

These solved cases illustrate the format of a correct answer.
[[record]]
compound = "Cc1ccc(NC(=O)c2ccc3c(c2)OCCO3)cc1S(=O)(=O)Nc1cccc(Cl)c1"
tested_on = "Neuropilin-1 (Homo sapiens) (UniProt O14786)"
group_label = "false (0)"

[[record]]
compound = "NS(=O)(=O)c1ccc(CNC(=S)NCc2ccc(F)cc2)cc1"
tested_on = "Neuropilin-1 (Homo sapiens) (UniProt O14786)"
group_label = "false (0)"

[[record]]
compound = "C=C(C)C1CC=C(C)/C(=N\\NC(=O)CNc2ccccc2OC)C1 (configuration not stated)"
tested_on = "Neuropilin-1 (Homo sapiens) (UniProt O14786)"
group_label = "false (0)"

[[record]]
compound = "CCOC(=O)C1=C(O)C(=O)N(c2ccccc2)C1c1cccc([N+](=O)[O-])c1 (configuration not stated)"
tested_on = "Neuropilin-1 (Homo sapiens) (UniProt O14786)"
group_label = "false (0)"

[[record]]
compound = "O=C(c1ccccn1)N1CCN(S(=O)(=O)c2ccccc2)CC1"
tested_on = "Neuropilin-1 (Homo sapiens) (UniProt O14786)"
group_label = "false (0)"


Challenge: # outcome recorded in this test, key = CCn1c(N)c(C(=O)NCc2cccnc2)sc1=S
Response given: true (1)

Challenge: For CCOc1ccccc1N1CCN(C(=O)c2ccncc2)CC1 , what call appears in the results of this test?
Response given: false (0)

Challenge: Test call, this compound: O=C(CCn1c(=O)c2cccn2c2cccnc21)NCc1cccc(Cl)c1
Response given: false (0)
